target-system: recombinant human PI3Kα (Homo sapiens, UniProt P42336)
Construct: purchased Echelon Biosciences (Salt Lake City, UT, USA) E-2000
Sequence (P42336 whole entry): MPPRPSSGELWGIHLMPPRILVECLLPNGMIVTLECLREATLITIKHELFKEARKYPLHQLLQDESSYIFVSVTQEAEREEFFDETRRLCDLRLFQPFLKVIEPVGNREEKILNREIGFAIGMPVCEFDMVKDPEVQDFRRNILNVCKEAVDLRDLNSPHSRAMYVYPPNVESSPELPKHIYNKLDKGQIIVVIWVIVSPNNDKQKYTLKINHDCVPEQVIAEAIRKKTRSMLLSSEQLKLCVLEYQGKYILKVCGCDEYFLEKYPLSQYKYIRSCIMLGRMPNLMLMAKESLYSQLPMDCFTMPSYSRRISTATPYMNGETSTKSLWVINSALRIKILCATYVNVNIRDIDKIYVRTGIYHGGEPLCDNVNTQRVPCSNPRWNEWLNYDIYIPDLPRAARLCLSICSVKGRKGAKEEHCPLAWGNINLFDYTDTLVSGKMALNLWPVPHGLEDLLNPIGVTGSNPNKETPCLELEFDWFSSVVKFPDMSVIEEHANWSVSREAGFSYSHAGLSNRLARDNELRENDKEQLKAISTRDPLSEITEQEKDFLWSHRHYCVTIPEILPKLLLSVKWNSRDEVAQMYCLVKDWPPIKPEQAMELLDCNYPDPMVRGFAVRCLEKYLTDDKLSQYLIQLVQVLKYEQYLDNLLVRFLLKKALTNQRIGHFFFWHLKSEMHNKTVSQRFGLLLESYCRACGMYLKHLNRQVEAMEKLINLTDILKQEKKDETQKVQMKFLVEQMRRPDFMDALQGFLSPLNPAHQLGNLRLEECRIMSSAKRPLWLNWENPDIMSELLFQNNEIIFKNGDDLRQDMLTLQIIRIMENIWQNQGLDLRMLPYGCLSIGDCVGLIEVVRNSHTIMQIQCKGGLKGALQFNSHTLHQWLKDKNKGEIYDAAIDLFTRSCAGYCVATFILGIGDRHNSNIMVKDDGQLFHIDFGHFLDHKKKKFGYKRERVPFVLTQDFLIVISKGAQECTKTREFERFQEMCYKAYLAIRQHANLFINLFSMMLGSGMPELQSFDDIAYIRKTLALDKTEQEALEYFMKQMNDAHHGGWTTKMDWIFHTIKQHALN
Sequence (P27986 whole entry partner): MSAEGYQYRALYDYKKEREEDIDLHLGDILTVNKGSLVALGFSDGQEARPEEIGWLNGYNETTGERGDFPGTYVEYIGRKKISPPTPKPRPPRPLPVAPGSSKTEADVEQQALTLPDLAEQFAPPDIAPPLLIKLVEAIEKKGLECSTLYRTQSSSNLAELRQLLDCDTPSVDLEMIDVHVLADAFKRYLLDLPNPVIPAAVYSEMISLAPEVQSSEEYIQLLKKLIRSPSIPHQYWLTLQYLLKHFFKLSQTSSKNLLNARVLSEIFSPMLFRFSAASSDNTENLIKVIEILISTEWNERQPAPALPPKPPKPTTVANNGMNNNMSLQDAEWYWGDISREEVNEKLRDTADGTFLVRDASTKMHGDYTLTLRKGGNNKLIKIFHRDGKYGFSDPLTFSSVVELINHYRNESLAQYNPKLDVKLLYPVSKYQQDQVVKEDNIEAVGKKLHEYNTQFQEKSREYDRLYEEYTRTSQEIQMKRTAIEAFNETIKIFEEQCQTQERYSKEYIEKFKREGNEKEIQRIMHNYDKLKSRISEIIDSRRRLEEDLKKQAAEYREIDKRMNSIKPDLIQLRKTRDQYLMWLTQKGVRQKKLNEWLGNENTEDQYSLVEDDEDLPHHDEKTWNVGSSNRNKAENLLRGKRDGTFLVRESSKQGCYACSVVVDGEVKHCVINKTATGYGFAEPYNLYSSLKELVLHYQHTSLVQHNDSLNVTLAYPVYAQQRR
test: Competitive fluorescence polarization (FP) assay, inhibition of PI3Kα
Format: biochemical
assay-context: FP assay, 50 µM ATP, mean of at least two determinations
readout-label: pIC50
Interpret pIC50 as the negative base-10 log of the concentration measured in mol/L.

# annotated cases, reported pIC50 shown
{"columns": ["molecule", "readout-label", "result"],
 "data": [
  ["CS(=O)(=O)N1CCN(c2nc3ccccc3nc2S(=O)(=O)c2ccc(F)cc2)CC1", "pIC50", 5.99],
  ["Cc1ccc(S(=O)(=O)c2nc3ccccc3nc2N2CCNC(C)C2)cc1 (centres unmarked)", "pIC50", 6.19],
  ["Cc1ccc(S(=O)(=O)c2nc3ccccc3nc2N2CCN(S(C)(=O)=O)CC2)cc1", "pIC50", 6.34],
  ["CC(=O)N1CCN(c2nc3ccccc3nc2S(=O)(=O)c2ccccc2)CC1", "pIC50", 5.96],
  ["COc1ccc(S(=O)(=O)c2nc3ccccc3nc2N2CCN(S(C)(=O)=O)CC2)cc1", "pIC50", 7.62]
]}

stdin: I would be grateful if you could share the reported pIC50 for "CN1CCN(c2nc3ccccc3nc2S(=O)(=O)c2ccc(Br)cc2)CC1" .
stdout: 5.37

stdin: Can you handle "O=S(=O)(c1ccc(Br)cc1)c1nc2ccccc2nc1N1CCNCC1" next?
stdout: 7.40

* * *

Entries and their IC50 values follow.
Tested on: HL60
test: MTT assay, antiproliferative activity against HL60 cells
Type: cell-based
assay-context: Homo sapiens, HL-60, 72 h, mean of at least two determinations
Give your result in µM as a bare value.

{"columns": ["smiles-text", "result"],
 "data": [
  ["CN1CCN(c2nc3ccccc3nc2S(=O)(=O)c2ccc(F)cc2)CC1", 2.75],
  ["O=C(c1ccc(Cl)cc1)N1CCN(c2nc3ccccc3nc2S(=O)(=O)c2ccccc2)CC1", 5.84]
]}

stdin: What value of IC50 has been recorded for this entry: "COc1ccc(S(=O)(=O)c2nc3ccccc3nc2N2CCNCC2)cc1"
stdout: 0.16

* * *

Tested on: PC3
test: MTT assay, antiproliferative activity against PC3 cells
Assay type: cell-based
assay-context: Homo sapiens, PC-3, 72 h, mean of at least two determinations
readout-label: IC50 (µM)
Please respond with the number in µM and leave the unit unwritten.

{"columns": ["compound", "IC50 (µM)"],
 "data": [
  ["COc1ccc(S(=O)(=O)c2nc3ccccc3nc2N2CCN(C(=O)c3ccccc3)CC2)cc1", 3.63],
  ["CN1CCN(c2nc3ccccc3nc2S(=O)(=O)c2ccc(Br)cc2)CC1", 1.01],
  ["COc1ccc(S(=O)(=O)c2nc3ccccc3nc2N2CCN(C(C)=O)CC2)cc1", 2.18]
]}

stdin: If you can, please state the reported IC50 value of "CC(=O)N1CCN(c2nc3ccccc3nc2S(=O)(=O)c2ccccc2)CC1" .
stdout: 2.25

stdin: Quick one: "O=C(c1ccc(Cl)cc1)N1CCN(c2nc3ccccc3nc2S(=O)(=O)c2ccccc2)CC1"
stdout: 2.74

stdin: Subsequent entry: "COc1ccc(S(=O)(=O)c2nc3ccccc3nc2N2CCN(C)CC2)cc1"
stdout: 1.55

stdin: Also, "O=C(c1ccccc1)N1CCN(c2nc3ccccc3nc2S(=O)(=O)c2ccccc2)CC1" please.
stdout: 4.99

stdin: Now consider CC1CN(c2nc3ccccc3nc2S(=O)(=O)c2ccc(F)cc2)CCN1 (centres unmarked) .
stdout: 2.34

stdin: Follow-up item: "COc1ccc(S(=O)(=O)c2nc3ccccc3nc2N2CCC(C(N)=O)CC2)cc1"
stdout: 2.28

stdin: Same read-out for "CS(=O)(=O)N1CCN(c2nc3ccccc3nc2S(=O)(=O)c2ccc(F)cc2)CC1" ?
stdout: 3.3

stdin: Can you check "COc1ccc(S(=O)(=O)c2nc3ccccc3nc2N2CCN(CCCN3CCOCC3)CC2)cc1" next?
stdout: 9.3

stdin: Same again, this time with CC1CN(c2nc3ccccc3nc2S(=O)(=O)c2ccccc2)CCN1 (centres unmarked)
stdout: 1.44

stdin: Please give the result for "O=C(c1ccc(Cl)cc1)N1CCN(c2nc3ccccc3nc2S(=O)(=O)c2ccc(F)cc2)CC1" too.
stdout: 4.05

stdin: Next entry: "Cc1ccc(S(=O)(=O)c2nc3ccccc3nc2N2CCN(S(=O)(=O)c3ccc(C)cc3)CC2)cc1"
stdout: 3.48

* * *

Catalogue of IC50 readings, one per entry.
Test system: A549
test: MTT assay, antiproliferative activity against A549 cells
Format: cell-based
assay-context: Homo sapiens, 72 h, mean of at least two determinations
Text: All synthesized target compounds were firstly tested for their antiproliferative activity against five human cancer cell lines, PC3, A549, HCT116, HL60, and KB, using MTT assay. Human prostate cancer PC3 cells, lung adenocarcinoma epithelial A549 cells, colon cancer HCT116 cells, promyelocytic leukemia HL60 cells and nasopharyngeal carcinoma KB cells were obtained from the cell bank of the Institute of Biochemistry and Cell Biology, Chinese Academy of Sciences (Shanghai, China). […]

{"columns": ["compound", "target-system", "IC50"],
 "data": [
  ["COc1ccc(S(=O)(=O)c2nc3ccccc3nc2N2CCN(C(=O)c3ccc(Cl)cc3)CC2)cc1 [Compound 36]", "A549", "> 50 µM"]
]}

stdin: Identify the measured IC50 of CN1CCN(c2nc3ccccc3nc2S(=O)(=O)c2ccccc2)CC1 [Compound 14] for A549.
stdout: 14 µM

stdin: Same question, COc1ccc(S(=O)(=O)c2nc3ccccc3nc2N2CCNCC2)cc1 [Compound 21] this time
stdout: 1.37 µM

stdin: Likewise for O=S(=O)(c1ccccc1)c1nc2ccccc2nc1N1CCNCC1 [Compound 19] ?
stdout: 12.8 µM

stdin: And for CC(=O)N1CCN(c2nc3ccccc3nc2S(=O)(=O)c2ccc(C)cc2)CC1 [Compound 10] ?
stdout: 2.42 µM

stdin: Quick one: O=C(c1ccc(Cl)cc1)N1CCN(c2nc3ccccc3nc2S(=O)(=O)c2ccc(Br)cc2)CC1 [Compound 37]
stdout: > 50 µM

stdin: Also check Cc1ccc(S(=O)(=O)c2nc3ccccc3nc2N2CCN(CCCN3CCOCC3)CC2)cc1 [Compound 50]
stdout: 0.51 µM

stdin: Can you check COc1ccc(S(=O)(=O)c2nc3ccccc3nc2N2CCN(C(=O)c3ccccc3)CC2)cc1 [Compound 31] next?
stdout: 7.43 µM

stdin: Next record, please: CS(=O)(=O)N1CCN(c2nc3ccccc3nc2S(=O)(=O)c2ccccc2)CC1 [Compound 39]
stdout: 2.37 µM

stdin: Do the same for COc1ccc(S(=O)(=O)c2nc3ccccc3nc2N2CCN(S(C)(=O)=O)CC2)cc1 [Compound 41] please
stdout: 1.32 µM

stdin: One more compound: Cc1ccc(S(=O)(=O)N2CCN(c3nc4ccccc4nc3S(=O)(=O)c3ccc(Br)cc3)CC2)cc1 [Compound 47]
stdout: 19.5 µM

stdin: Repeat with O=c1cc(N2CCOCC2)oc2c(-c3ccccc3)cccc12 [LY294002, reference compound]
stdout: 89.7 µM

stdin: Query Cc1ccc(S(=O)(=O)N2CCN(c3nc4ccccc4nc3S(=O)(=O)c3ccccc3)CC2)cc1 [Compound 44] next
stdout: 24.3 µM

stdin: # iterate: Cc1ccc(S(=O)(=O)c2nc3ccccc3nc2N2CCN(C(=O)c3ccc(Cl)cc3)CC2)cc1 [Compound 35]
stdout: 21.6 µM

* * *

target-system: recombinant human PI3Kα (Homo sapiens)
Construct: purchased Echelon Biosciences (Salt Lake City, UT, USA) E-2000
test: Competitive fluorescence polarization (FP) assay, inhibition of PI3Kα
Assay type: biochemical
assay-context: FP assay, 50 µM ATP, mean of at least two determinations
pIC50: −log10 of the molar value.
Known pIC50 of a selection of compounds

Worked cases, pIC50 given:
{"columns": ["compound", "pIC50"],
 "data": [
  ["Cc1ccc(S(=O)(=O)N2CCN(c3nc4ccccc4nc3S(=O)(=O)c3ccccc3)CC2)cc1 [Compound 44]", "< 5.00"],
  ["CN1CCN(c2nc3ccccc3nc2S(=O)(=O)c2ccccc2)CC1 [Compound 14]", "< 5.00"],
  ["NC(=O)C1CCN(c2nc3ccccc3nc2S(=O)(=O)c2ccccc2)CC1 [Compound 4]", "< 5.00"]
]}

stdin: Item Cc1ccc(S(=O)(=O)c2nc3ccccc3nc2N2CCN(C)CC2)cc1 [Compound 15] has what recorded pIC50?
stdout: < 5.00

* * *

Overview of reported IC50 across a group of compounds:
System: A549
test: MTT assay, antiproliferative activity against A549 cells
Format: cell-based
assay-context: Homo sapiens, 72 h, mean of at least two determinations
// units = nM; emit number, no label

These solved cases illustrate the format of a correct answer.
{"columns": ["smiles-text", "IC50, nM"],
 "data": [
  ["CS(=O)(=O)N1CCN(c2nc3ccccc3nc2S(=O)(=O)c2ccc(F)cc2)CC1", 1260],
  ["O=S(=O)(c1ccc(F)cc1)c1nc2ccccc2nc1N1CCNCC1", 2790]
]}

stdin: Quick one: IC50 for "O=C(c1ccc(Cl)cc1)N1CCN(c2nc3ccccc3nc2S(=O)(=O)c2ccc(F)cc2)CC1" ?
stdout: 17700
